Would you kindly list GI50 for each of these compounds?
# Test system: XF498
# procedure summary: NCI tumour cell line growth inhibition, 48 h
The source made the active and inactive calls. Cut-off read from the data, not from the text of the source: active = GI50 up to about 1.1 µM and inactive = higher.

Solved entries (count: 2):
| compound | recorded result |
| --- | --- |
| C1CCC(N=C2N(C3CCCCC3)C(=NC3CCCCC3)N2C2CCCCC2)CC1 | > 100 µM (inactive) |
| O=C1CC2Sc3ccccc3N=C2N1c1ccc(Cl)cc1Cl (stereo not drawn) | > 100 µM (inactive) |

Now for another entry.
Recall the recorded GI50 for `COc1cc(/C=C/c2csnn2)cc(OC)c1OC` with XF498 and state it.
> 100 µM (inactive)

====

# System: OVCAR-3
# procedure summary: NCI tumour cell line growth inhibition, 48 h
The source made the active and inactive calls. Cut-off read from the data, not from the text of the source: active = GI50 up to about 1.1 µM and inactive = higher.
measured property: GI50

Solved entries (count: 6):
| compound | GI50 |
| --- | --- |
| O=C1C(CN2CCCC2)CCC1CN1CCCC1 (centres undefined) | 17.1 µM (inactive) |
| CCOC(OC1=CCCC1)C(C)[Se]c1ccccc1 (centres undefined) | 34.5 µM (inactive) |
| O=C(O)c1nn(-c2ccc(Cl)cc2)c2c1C(=O)c1ccccc1C2=O | 24.7 µM (inactive) |
| NS(=O)(=O)c1nnc(NS(=O)(=O)c2ccc(Cl)cc2)s1 | > 100 µM (inactive) |
| CC(=O)O/N=C/c1ncccc1OC(C)=O | > 100 µM (inactive) |
| COC(=S)OC1CC(n2cnc3c(=O)[nH]cnc32)OC1CO[Si](C)(C)C(C)(C)C (centres undefined) | > 100 µM (inactive) |

Please supply GI50 for each of the following items, keeping them in order.
1. CN[C@@H](C)[C@H](N)c1ccccc1
2. CC(C)C(/C=C/c1ccc(Cl)cc1)=N\NC(=S)NN
3. COc1cccc2c1CCc1c(-c3ccc(F)cc3)cc(-c3ccc4ccccc4n3)nc1-2
4. Cc1ccc(NP(=O)(Oc2ccccc2)N(CCCl)CCCl)cc1 (centres undefined)
5. CC(C)NC(=O)OCc1c(COC(=O)NC(C)C)c(-c2ccc[n+](COC(=O)C(C)(C)C)c2)n2c1CCC2
6. O=C(CCCCCCCCCCc1ccccc1)C1=C(O)CC(O)CC1=O (centres undefined)
7. CCCCCCCCCCCCC1NC(=N)NC2(CCCO2)C1C(=O)OC (centres undefined)

1. > 100 µM (inactive)
2. 20.1 µM (inactive)
3. > 100 µM (inactive)
4. 54.6 µM (inactive)
5. > 100 µM (inactive)
6. 52.6 µM (inactive)
7. 3.52 µM (inactive)

Please supply GI50 for each of the following items, keeping them in order.
1. O=[N+]([O-])c1ccc(CSC2=C(c3ccc(Cl)cc3)S/C(=C3\SC(SCc4ccc([N+](=O)[O-])cc4)=C(c4ccc(Cl)cc4)S3)S2)cc1
2. CN(C)c1ccc2nc(CC(O)(C(F)(F)F)C(F)(F)F)ccc2c1
3. CC12CC3OC(=O)C1COC14OC5(C2C1=O)C(O)(CCC1C4CC2OC24CC=CC(=O)C14C)C(=O)OC35C (centres undefined)

1: > 100 µM (inactive); 2: > 10 µM (inactive); 3: 13.9 µM (inactive)

Please supply GI50 for each of the following items, keeping them in order.
1. O=c1c2c(nc3[nH]ccn13)CCCC2
2. O=C(Nc1cccc(Cl)c1)C(=O)C(C(=O)c1ccc2ccccc2c1)C1OC(=O)c2ccccc21 (centres undefined)
3. Cc1ccc2c(c1)C(=O)c1[nH]c3ccc(F)cc3c1CO2
4. O=C(Nc1c(O)[nH]c(=S)[nH]c1=O)c1ccc2ccccc2n1
5. CCOC(=O)NC(=O)c1cn(CCCCCCCCCCC(=O)N2CCN(CCn3cc(C(=O)NC(=O)OCC)c(=O)[nH]c3=O)CC2)c(=O)[nH]c1=O

1: > 10 µM (inactive); 2: 14.7 µM (inactive); 3: 36.6 µM (inactive); 4: > 100 µM (inactive); 5: > 100 µM (inactive)
